Experiment Description: molar heat capacity at constant pressure
Details: 293.15 K; 8000 kPa; Liquid; Small sample (50 mg) DSC
Numbers after ± are expanded uncertainties.
Measured Endpoint: molar heat capacity at constant pressure
Show the value, then the unit it is measured in.

In the examples that follow, each entry is paired with its recorded molar heat capacity at constant pressure.
compound="CCn1cc[n+](C)c1.F[B-](F)(F)F [1-ethyl-3-methylimidazolium tetrafluoroborate]" result="303.35 ± 4.7 J/K/mol"
compound="CCCCn1cc[n+](C)c1.F[B-](F)(F)F [1-butyl-3-methylimidazolium tetrafluoroborate]" result="364.23 ± 5.6 J/K/mol"
compound="CCCCCCn1cc[n+](C)c1.F[B-](F)(F)F [1-hexyl-3-methylimidazolium tetrafluoroborate]" result="427.5 ± 6.6 J/K/mol"

Okay, next one:
Can you look up the measured molar heat capacity at constant pressure of CCCCCCCC[n+]1ccn(C)c1.F[B-](F)(F)F [1-methyl-3-octylimidazolium tetrafluoroborate] for me?
496.78 ± 7.7 J/K/mol

====

Experiment Description: molar heat capacity at constant pressure
Details: 303.15 K; 6000 kPa; Liquid; Small sample (50 mg) DSC
Measured Endpoint: molar heat capacity at constant pressure (J/K/mol)
Write the answer as a number in J/K/mol, unit excluded.

molecule="CCCCCCCC[n+]1ccn(C)c1.F[B-](F)(F)F [1-methyl-3-octylimidazolium tetrafluoroborate]" measured_endpoint="molar heat capacity at constant pressure" number=503.5

Can you look up the measured molar heat capacity at constant pressure of CCCCn1cc[n+](C)c1.F[B-](F)(F)F [1-butyl-3-methylimidazolium tetrafluoroborate] for me?
368.34

Next up: CCCCCCn1cc[n+](C)c1.F[B-](F)(F)F [1-hexyl-3-methylimidazolium tetrafluoroborate]
432.47

Next up: CCn1cc[n+](C)c1.F[B-](F)(F)F [1-ethyl-3-methylimidazolium tetrafluoroborate]
306.67

====

Experiment Description: molar heat capacity at constant pressure
Details: 298.15 K; 50000 kPa; Liquid; Small sample (50 mg) DSC
Measured Endpoint: molar heat capacity at constant pressure (J/K/mol)
Write the answer as a number in J/K/mol, unit excluded.

In the examples that follow, each entry is paired with its recorded molar heat capacity at constant pressure.
compound="CCCCn1cc[n+](C)c1.F[B-](F)(F)F [1-butyl-3-methylimidazolium tetrafluoroborate]" measured_endpoint="molar heat capacity at constant pressure" number=366.61
compound="CCn1cc[n+](C)c1.F[B-](F)(F)F [1-ethyl-3-methylimidazolium tetrafluoroborate]" measured_endpoint="molar heat capacity at constant pressure" number=305.64
compound="CCCCCCn1cc[n+](C)c1.F[B-](F)(F)F [1-hexyl-3-methylimidazolium tetrafluoroborate]" measured_endpoint="molar heat capacity at constant pressure" number=430.77

Okay, next one:
Can you look up the measured molar heat capacity at constant pressure of CCCCCCCC[n+]1ccn(C)c1.F[B-](F)(F)F [1-methyl-3-octylimidazolium tetrafluoroborate] for me?
500.16

====

Entries and their molar heat capacity at constant pressure
Experiment Description: molar heat capacity at constant pressure
Details: 298.15 K; 60000 kPa; Liquid; Small sample (50 mg) DSC
Write the answer as a number in J/K/mol, unit excluded.

compound="CCCCCCCC[n+]1ccn(C)c1.F[B-](F)(F)F [1-methyl-3-octylimidazolium tetrafluoroborate]" measured_endpoint="molar heat capacity at constant pressure" number=500.14
compound="CCCCCCn1cc[n+](C)c1.F[B-](F)(F)F [1-hexyl-3-methylimidazolium tetrafluoroborate]" measured_endpoint="molar heat capacity at constant pressure" number=430.96
compound="CCn1cc[n+](C)c1.F[B-](F)(F)F [1-ethyl-3-methylimidazolium tetrafluoroborate]" measured_endpoint="molar heat capacity at constant pressure" number=305.8

Can you look up the measured molar heat capacity at constant pressure of CCCCn1cc[n+](C)c1.F[B-](F)(F)F [1-butyl-3-methylimidazolium tetrafluoroborate] for me?
366.7
